Test: Quantitative High-Throughput drug screen in 47 multiple myeloma cell lines against the NCATS MIPE library collection: LP1_DSMZ cell viability assay (AID 1918982); note: nearly all actives have a fitted effect of over 35% in size
Conditions: LP1 myeloma viability, CellTiter-Glo ATP luminescence, 48 h; series mostly up to 45.8 µM
Results filed as inconclusive are left out. Calls of active or inactive are those of the source. Calls come from the whole dose curve; as a rule, active = well fitted cell-killing curve with a large enough effect; inconclusive = small, poorly fitted or top-dose-only effect, or effect the other way; inactive = no such curve, though single readings can be large or run the other way.
// classify into True for active, False for inactive

Check out these entries, answers already filled in.
> print(dat)
                                   molecule  label
1  CCc1c2c(nc3ccc(OC(=O)N4CCC(N5CCCCC5)CC4)cc13)-c1cc3c(c(=O)n1C2)COC(=O)[C@]3(O)CC   True
2  Cc1ccc(S(=O)(=O)N[C@@H](Cc2ccccc2)C(=O)CCl)cc1   True

Each molecule tested received a call. Report the one for CC(=O)CC(c1ccccc1)c1c(O)c2ccccc2oc1=O (centres undefined) . False

For `O=S(=O)(O)CCS` , which call appears in the assay record? False

All figures here come from PubChem BioAssay (NCATS).
